Values compiled from patent US20220025055A1.

- Target or test system: T1, human FLT3 (FMS-like tyrosine kinase 3) (human, UniProt P36888 27-993)
- T1 sequence (looked up): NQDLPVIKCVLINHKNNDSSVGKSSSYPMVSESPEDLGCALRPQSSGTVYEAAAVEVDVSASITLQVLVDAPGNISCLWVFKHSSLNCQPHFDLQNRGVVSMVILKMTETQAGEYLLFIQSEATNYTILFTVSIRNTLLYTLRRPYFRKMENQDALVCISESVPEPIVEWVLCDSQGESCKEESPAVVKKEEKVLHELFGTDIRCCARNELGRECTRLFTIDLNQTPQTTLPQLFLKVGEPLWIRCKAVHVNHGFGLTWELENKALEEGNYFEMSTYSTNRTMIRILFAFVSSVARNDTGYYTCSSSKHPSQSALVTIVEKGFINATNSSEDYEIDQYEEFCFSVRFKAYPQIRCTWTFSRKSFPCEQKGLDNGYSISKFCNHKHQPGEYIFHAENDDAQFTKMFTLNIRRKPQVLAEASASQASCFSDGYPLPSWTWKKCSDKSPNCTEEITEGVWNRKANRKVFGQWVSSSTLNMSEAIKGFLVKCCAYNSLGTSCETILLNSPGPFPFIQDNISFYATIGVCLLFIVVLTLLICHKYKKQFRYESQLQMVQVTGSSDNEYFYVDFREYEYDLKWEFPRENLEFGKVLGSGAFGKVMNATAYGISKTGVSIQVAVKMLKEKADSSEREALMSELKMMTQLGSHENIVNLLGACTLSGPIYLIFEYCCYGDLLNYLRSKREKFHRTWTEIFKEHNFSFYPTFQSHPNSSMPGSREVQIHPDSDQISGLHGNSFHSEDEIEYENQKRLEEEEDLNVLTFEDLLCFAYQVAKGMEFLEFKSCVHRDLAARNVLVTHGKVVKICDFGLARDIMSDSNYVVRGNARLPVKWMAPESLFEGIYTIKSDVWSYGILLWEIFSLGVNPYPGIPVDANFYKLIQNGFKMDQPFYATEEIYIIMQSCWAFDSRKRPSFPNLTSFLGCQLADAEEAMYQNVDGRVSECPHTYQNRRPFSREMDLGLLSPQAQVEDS
- Test summary: cell-based or functional assay
Readout name: Single dose STAT5-Luc assay, activity relative to NB1016 (chimeric), antibody at 1 nM (%)

Binder	Unit	Readout number
Humanized VH1 x Humanized VL4 (antibody, V domains shown) VH: EVQLLESGGGLVQPGGSLRLSCAPSGFTFSNYGMAWVRQAPGKGLEWVSSIHSGGGDTYYRDSVKGRFTISRDNSKNTLYLQMNSLRAEDTAVYYCARGRTPTGYYFDHWGQGTMVTVSS VL: DIQMTQSPSSLSASVGDRVTITCRASEGIHNGLAWYQQKPGKAPKRLIYNANSLHSRVPSRFSGSGSGTEFTLTISSLQPEDFATYYCQQYYDYPLTFGQGTKLEIK	%	91
Humanized VH5 x Humanized VL2 (antibody, V domains shown) VH: EVQLVESGGVVVQPGGSLRLSCAPSGFTFSNYGMAWVRQAPGKGLEWVSSIHSGGGDTYYADSVKGRFTISRDNSKNSLYLQMNSLRTEDTALYYCARGRTPTGYYFDHWGQGTMVTVSS VL: AIQMTQSPSSLSASVGDRVTITCRASEGIHNGLAWYQQKPGKAPKLLIYNANSLHSGVPSRFSGSGSGTDFTLTISSLQPEDFATYYCQQYYDYPLTFGQGTKLEIK	%	53
Humanized VH1 x Humanized VL2 (antibody, V domains shown) VH: EVQLLESGGGLVQPGGSLRLSCAPSGFTFSNYGMAWVRQAPGKGLEWVSSIHSGGGDTYYRDSVKGRFTISRDNSKNTLYLQMNSLRAEDTAVYYCARGRTPTGYYFDHWGQGTMVTVSS VL: AIQMTQSPSSLSASVGDRVTITCRASEGIHNGLAWYQQKPGKAPKLLIYNANSLHSGVPSRFSGSGSGTDFTLTISSLQPEDFATYYCQQYYDYPLTFGQGTKLEIK	%	72
Humanized VH5 x Humanized VL3 (antibody, V domains shown) VH: EVQLVESGGVVVQPGGSLRLSCAPSGFTFSNYGMAWVRQAPGKGLEWVSSIHSGGGDTYYADSVKGRFTISRDNSKNSLYLQMNSLRTEDTALYYCARGRTPTGYYFDHWGQGTMVTVSS VL: AIQLTQSPSSLSASVGDRVTITCRASEGIHNGLAWYQQKPGKAPKLLIYNANSLHSRVPSRFSGSGSGTDFTLTISSLQPEDFATYFCQQYYDYPLTFGQGTKLEIK	%	31
